tgt: ΔF508-CFTR (Homo sapiens, UniProt P13569, DEL508-508)
Construct: host or cells: CFBE41o-, doxycycline-inducible
Sequence (P13569 with tags, fused parts or gaps DEL508-508): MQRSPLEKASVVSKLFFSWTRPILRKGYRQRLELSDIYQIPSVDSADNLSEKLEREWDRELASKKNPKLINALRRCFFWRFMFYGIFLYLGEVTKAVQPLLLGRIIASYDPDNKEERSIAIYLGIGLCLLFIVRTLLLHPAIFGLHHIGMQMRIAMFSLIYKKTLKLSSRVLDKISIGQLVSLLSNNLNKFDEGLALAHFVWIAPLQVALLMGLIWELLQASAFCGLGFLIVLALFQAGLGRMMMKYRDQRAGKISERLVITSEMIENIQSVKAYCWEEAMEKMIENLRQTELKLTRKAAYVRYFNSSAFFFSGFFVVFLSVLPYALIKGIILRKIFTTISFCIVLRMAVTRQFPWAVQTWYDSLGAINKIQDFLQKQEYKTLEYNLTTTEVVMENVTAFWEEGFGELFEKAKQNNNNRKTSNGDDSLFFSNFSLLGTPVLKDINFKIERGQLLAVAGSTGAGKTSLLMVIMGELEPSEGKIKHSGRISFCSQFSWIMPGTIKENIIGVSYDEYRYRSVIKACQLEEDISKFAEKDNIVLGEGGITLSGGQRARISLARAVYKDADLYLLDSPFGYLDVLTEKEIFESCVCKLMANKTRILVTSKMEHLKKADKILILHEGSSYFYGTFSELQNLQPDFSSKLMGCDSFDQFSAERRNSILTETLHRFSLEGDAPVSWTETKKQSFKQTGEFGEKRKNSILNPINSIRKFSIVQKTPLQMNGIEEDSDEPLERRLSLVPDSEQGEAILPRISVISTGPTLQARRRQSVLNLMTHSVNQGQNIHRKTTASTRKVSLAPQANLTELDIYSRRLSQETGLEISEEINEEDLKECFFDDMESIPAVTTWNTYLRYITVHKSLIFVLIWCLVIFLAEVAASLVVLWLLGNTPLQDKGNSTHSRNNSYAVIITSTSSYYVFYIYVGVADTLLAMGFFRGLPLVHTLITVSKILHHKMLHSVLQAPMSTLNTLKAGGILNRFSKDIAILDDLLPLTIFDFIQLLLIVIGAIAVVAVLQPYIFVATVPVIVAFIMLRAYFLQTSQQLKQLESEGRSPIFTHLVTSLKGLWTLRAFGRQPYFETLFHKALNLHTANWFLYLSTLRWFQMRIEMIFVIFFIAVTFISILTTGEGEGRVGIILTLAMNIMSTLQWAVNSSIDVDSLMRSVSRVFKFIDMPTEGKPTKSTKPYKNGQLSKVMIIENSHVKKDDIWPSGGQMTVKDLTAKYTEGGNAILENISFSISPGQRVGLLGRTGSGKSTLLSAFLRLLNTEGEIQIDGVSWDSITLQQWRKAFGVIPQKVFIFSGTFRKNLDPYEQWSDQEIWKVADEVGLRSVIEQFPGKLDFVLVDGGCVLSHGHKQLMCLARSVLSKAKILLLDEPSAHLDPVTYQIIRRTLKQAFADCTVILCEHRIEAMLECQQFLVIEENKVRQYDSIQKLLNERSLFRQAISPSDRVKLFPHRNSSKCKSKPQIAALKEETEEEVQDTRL
assay-details: CFTR cell surface levels using HRP-tagged ΔF508-CFTR expressing CFBE cells, intrinsic corrector capacity
Format: cell-based
Below is a list of entries, each paired with its recorded pEC50 value.
Friendly reminder that pEC50 comes from taking -log10 of the concentration in mol/L.

Lookup: Fill in the recorded pEC50 for this molecule, with ΔF508-CFTR (Homo sapiens, UniProt P13569, DEL508-508) as test system: CC(C)(C)OC(=O)N1CC[C@@H]2CN(c3cc(C(=O)O)nc4c3c(C3CCC3)nn4-c3ccccc3)CC[C@@H]21 (racemic) [compound 549]
Found: 6.68

Lookup: Fill in the recorded pEC50 for this molecule, with ΔF508-CFTR (Homo sapiens, UniProt P13569, DEL508-508) as test system: O=C(O)c1cc(N2CCC(CCN3CCOCC3)CC2)c2c(C3CCC3)nn(-c3ccccc3)c2n1 [compound 575]
Found: 6.29

Lookup: Fill in the recorded pEC50 for this molecule, with ΔF508-CFTR (Homo sapiens, UniProt P13569, DEL508-508) as test system: CC(C)c1nn(-c2ccc(F)cc2)c2nc(C(=O)O)cc(N3CCC(CN4CCCC4)CC3)c12 [compound 811]
Found: 6.05

Lookup: Fill in the recorded pEC50 for this molecule, with ΔF508-CFTR (Homo sapiens, UniProt P13569, DEL508-508) as test system: Cc1c(C(=O)O)nc2c(c(C(C)C)nn2-c2ccc(F)cc2)c1N1CCC(N2CCOCC2)CC1 [compound 763]
Found: 5.79

Lookup: Fill in the recorded pEC50 for this molecule, with ΔF508-CFTR (Homo sapiens, UniProt P13569, DEL508-508) as test system: O=C(O)c1cc(NCC2CCOCC2)c2c(C3CCC3)nn(-c3ccccc3)c2n1 [compound 590]
Found: 5.58

Lookup: Fill in the recorded pEC50 for this molecule, with ΔF508-CFTR (Homo sapiens, UniProt P13569, DEL508-508) as test system: O=C(O)c1cc(NC[C@@H]2CCCO2)c2c(C3CCC3)nn(-c3ccccc3)c2n1 [compound 655]
Found: 5.51

Lookup: Fill in the recorded pEC50 for this molecule, with ΔF508-CFTR (Homo sapiens, UniProt P13569, DEL508-508) as test system: COCCN1CCN(c2cc(C(=O)O)nc3c2c(C2CCC2)nn3-c2ccccc2)CC1 [compound 571]
Found: 6.09

Lookup: Fill in the recorded pEC50 for this molecule, with ΔF508-CFTR (Homo sapiens, UniProt P13569, DEL508-508) as test system: CC(C)(C)OC(=O)NC[C@@H]1CCN(c2cc(C(=O)O)nc3c2c(C2CCC2)nn3-c2ccccc2)C1 [compound 671]
Found: 5.79

---

Below is a list of entries, each paired with its recorded % Activation value.
tgt: ΔF508-CFTR (Homo sapiens, UniProt P13569, DEL508-508)
Construct: host or cells: CFBE41o-, doxycycline-inducible
assay-details: CFTR cell surface levels using HRP-tagged ΔF508-CFTR expressing CFBE cells, in the presence of a co-corrector
Assay type: cell-based
conditions-used: HRP-tagged ΔF508-CFTR expressing CFBE cells, in the presence of 3 μM co-corrector
Number in %, nothing else.

Lookup: Look at this molecule and give its reported % Activation. O=C(O)c1cc(N2CC[C@@H](N3CCCCC3)C2)c2c(C3CCC3)nn(-c3ccccc3)c2n1 [compound 715]
Found: 261.4

Lookup: Look at this molecule and give its reported % Activation. CC(C)c1nn(-c2cccc(C(F)(F)F)c2)c2nc(C(=O)O)cc(-c3cnc(N(C)C4CCOCC4)nc3)c12 [compound 281]
Found: 425.85

Lookup: Look at this molecule and give its reported % Activation. Cc1nn(-c2ccccc2)c2nc(C(=O)O)cc(OC[C@@H](F)C3CCOCC3)c12 [compound 335]
Found: 259.25

Lookup: Look at this molecule and give its reported % Activation. COC1CCCN(c2cc(C(=O)O)nc3c2c(C(C)C)nn3-c2cccc(C)c2)C1 (stereo not shown) [compound 190]
Found: 301.85

Lookup: Look at this molecule and give its reported % Activation. O=C(O)c1cc(N2CCC(N3CCCC(C(F)(F)F)C3)CC2)c2c(C3CCC3)nn(-c3ccc(F)cc3)c2n1 (stereo not shown) [compound 874]
Found: 608.35

New cases:
Lookup: Look at this molecule and give its reported % Activation. CN(C)[C@H]1CCN(c2cc(C(=O)O)nc3c2c(C2CCC2)nn3-c2ccccc2)C1 [compound 568]
Found: 279.9

Lookup: Look at this molecule and give its reported % Activation. O=C(O)c1cc(N2CC3(CCCOC3)C2)c2c(C3CCC3)nn(-c3ccccc3)c2n1 [compound 720]
Found: 263.1

---

Below is a list of entries, each paired with its recorded % Activation value.
tgt: ΔF508-CFTR (Homo sapiens, UniProt P13569, DEL508-508)
Construct: host or cells: CFBE41o-, doxycycline-inducible
assay-details: CFTR cell surface levels using HRP-tagged ΔF508-CFTR expressing CFBE cells, in the presence of a co-corrector
Format: cell-based
conditions-used: HRP-tagged ΔF508-CFTR expressing CFBE cells, in the presence of 3 μM co-corrector
Number in %, nothing else.

Some molecules with known % Activation results, for comparison:
Lookup: Look at this molecule and give its reported % Activation. COCCN(C)c1cc(C(=O)O)nc2c1c(C1CCC1)nn2-c1ccccc1
Found: 336.05

Lookup: Look at this molecule and give its reported % Activation. CCC1(F)CN(c2cc(C(=O)O)nc3c2c(C2CCC2)nn3-c2ccccc2)C1
Found: 254.15

Lookup: Look at this molecule and give its reported % Activation. O=C(O)c1cc(N2CCC3(CC2)CCN(C2CCC2)CC3)c2c(C3CCC3)nn(-c3ccc(F)cc3)c2n1
Found: 371.3

New cases:
Lookup: Look at this molecule and give its reported % Activation. Cc1nn(-c2ccccc2)c2nc(C(=O)O)cc(-c3ccc(N4CCC4)cc3)c12
Found: 355.55

Lookup: Look at this molecule and give its reported % Activation. O=C(O)c1cc(N2CCN(CC(=O)N3CCCC3)CC2)c2c(C3CCC3)nn(-c3ccccc3)c2n1
Found: 292.55

Lookup: Look at this molecule and give its reported % Activation. CC(C)c1nn(-c2ccc(F)cc2)c2nc(C(=O)O)cc(N3CCC(CC4CCCCC4)CC3)c12
Found: 429.5

Lookup: Look at this molecule and give its reported % Activation. CC(C)c1nn(-c2cccc(N3CCOCC3)c2)c2nc(C(=O)O)cc(-c3ccc(N4CCC(C#N)CC4)cc3)c12
Found: 661.63

Lookup: Look at this molecule and give its reported % Activation. O=C(O)c1cc(N2CCC(F)(F)C2)c2c(C3CCC3)nn(-c3ccccc3)c2n1
Found: 289.75

Lookup: Look at this molecule and give its reported % Activation. COc1cccc(-n2nc(C3CCC3)c3c(N4CCC(N5CCOCC5)CC4)cc(C(=O)O)nc32)c1
Found: 472.75

Lookup: Look at this molecule and give its reported % Activation. COC1CN(c2cc(C(=O)O)nc3c2c(C(C)C)nn3-c2cccc(C)c2)C1
Found: 386.9

Lookup: Look at this molecule and give its reported % Activation. COc1cc(-n2nc(C3CCC3)c3c(N4CCC(N5CCOCC5)CC4)cc(C(=O)O)nc32)ccc1F
Found: 486.75

Lookup: Look at this molecule and give its reported % Activation. CC(C)COC1CCN(c2cc(C(=O)O)nc3c2c(C(C)C)nn3-c2ccc(F)cc2)CC1
Found: 409.8

---

tgt: ΔF508-CFTR (Homo sapiens, UniProt P13569, DEL508-508)
Construct: host or cells: CFBE41o-, doxycycline-inducible
assay-details: CFTR cell surface levels using HRP-tagged ΔF508-CFTR expressing CFBE cells, in the presence of a co-corrector
Assay type: cell-based
conditions-used: HRP-tagged ΔF508-CFTR expressing CFBE cells, in the presence of 3 μM co-corrector; read-out: EC50
pEC50: −log10 of the molar value.
Tag: true if measured pEC50 is not below 6, false if it is.

Consider the worked cases shown below.
Lookup: Is pEC50 for CC(C)N1CCC2(CCN(c3cc(C(=O)O)nc4c3c(C3CCC3)nn4-c3ccc(F)cc3)CC2)CC1 [compound 890] at or above 6?
Found: true

Lookup: Is pEC50 for COC(=O)N1CC(c2nn(C3CCCCC3)c3nc(C(=O)O)cc(-c4cnc(N(C)C)nc4)c23)C1 [compound 166] at or above 6?
Found: false

Lookup: Is pEC50 for CCCCOC1CCN(c2cc(C(=O)O)nc3c2c(C(C)C)nn3-c2ccc(F)cc2)CC1 [compound 395] at or above 6?
Found: true

Lookup: Is pEC50 for CC(C)c1nn(-c2cccc(N3CCCC3)c2)c2nc(C(=O)O)cc(-c3ccc(N4CCC(C#N)CC4)nc3)c12 [compound 222] at or above 6?
Found: true

Lookup: Is pEC50 for N#CC1CCN(c2ccc(-c3cc(C(=O)O)nc4c3c(C3CCC3)nn4C3CCCCC3)cc2)CC1 [compound 219] at or above 6?
Found: true

Lookup: Is pEC50 for Cc1nn(-c2ccccc2)c2nc(C(=O)O)cc(O[C@@H]3CCN(C)C3)c12 [compound 338] at or above 6?
Found: false

Lookup: Is pEC50 for CC(C)c1nn(-c2ccc(F)c(F)c2)c2nc(C(=O)O)cc(-c3ccc(N4CCOCC4)cc3)c12 [compound 243] at or above 6?
Found: true

Lookup: Is pEC50 for COCCC1(COc2cc(C(=O)O)nc3c2c(C2CCC2)nn3-c2ccccc2)CC1 [compound 485] at or above 6?
Found: true

Lookup: Is pEC50 for O=C(O)c1cc(N2CCN(CC3CCCO3)CC2)c2c(C3CCC3)nn(-c3ccccc3)c2n1 (stereo not shown) [compound 681] at or above 6?
Found: true

Lookup: Is pEC50 for CC(C)c1nn(-c2cccc(N3CCC3)c2)c2nc(C(=O)O)cc(-c3ccc(N4CCOCC4)cc3)c12 [compound 151] at or above 6?
Found: true

Now consider the entry below.
Lookup: Is pEC50 for Cc1cc(N2CCN(c3cc(C(=O)O)nc4c3c(C3CCC3)nn4C3CCCCC3)CC2)ccn1 [compound 864] at or above 6?
Found: true
